Where do these numbers come from? They come from the Human Domainome abundance scans (Beltran et al. 2025).

B1: POU domain, class 5, transcription factor 1, residues 134 to 212; numbered along this chain, Q01860 (parent)
chain: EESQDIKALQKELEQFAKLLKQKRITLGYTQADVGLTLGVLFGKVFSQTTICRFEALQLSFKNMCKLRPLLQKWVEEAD

- Variants of: B1
- assay remarks: abundance fitness (aPCA) (normalised: wild type 0, dead -1); higher = more abundant; growth selection in yeast, the domain comes from the species named
- recorded conditions: Homo sapiens
Outcome: rule met for abundance fitness of at least -0.5; rule not met for anything lower.

Prompt: Hi team, for `G39V` , is the recorded abundance fitness at or above -0.5?
Completion: rule not met

Prompt: Form field: abundance fitness at least -0.5? Entry: `Q48D`
Completion: rule met

Prompt: hey, is abundance fitness for this one >= -0.5? `L71C`
Completion: rule met

Prompt: Reported abundance fitness at or above -0.5? `L57E`
Completion: rule not met

Prompt: Identify whether the reported abundance fitness of the following variant is -0.5 or greater: `V75P`
Completion: rule met

Prompt: # bool: abundance fitness of `Q31A` >= -0.5
Completion: rule met

Prompt: Is abundance fitness at least -0.5? Consider `T37A`
Completion: rule met
